- Tested on: GP5d;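 note: growth inhibition of human GP5d cells, read out with a cell viability assay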
- procedure.summary: cells
- Format: functional, cell-based
- measurement.context: Homo sapiens
- Description: SANGER: Inhibition of human GP5d cell growth in a cell viability assay.
IC50 overview
Kindly answer with a numeric value in nM, unit omitted.

- molecule: "Cn1c(=O)n(-c2ccc(C(C)(C)C#N)cc2)c2c3cc(-c4cnc5ccccc5c4)ccc3ncc21 [DACTOLISIB]"
  IC50 [nM]: 434

Name the recorded IC50 for CC[C@]1(O)C[C@@H]2CN(CCc3c([nH]c4ccccc34)[C@@](C(=O)OC)(c3cc4c(cc3OC)N(C)[C@H]3[C@@](O)(C(=O)OC)[C@H](OC(C)=O)[C@]5(CC)C=CCN6CC[C@]43[C@@H]65)C2)C1 [VINBLASTINE] . 4.67

Name the recorded IC50 for C[C@]12O[C@H](C[C@]1(O)CO)n1c3ccccc3c3c4c(c5c6ccccc6n2c5c31)CNC4=O [LESTAURTINIB] . 177

----------
- System: VA-ES-BJ;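 note: growth inhibition of the VA-ES-BJ cell line, read out by a cell viability assay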
- procedure.summary: cells
- Type: functional, cell-based
- measurement.context: Homo sapiens
- Description: SANGER: Inhibition of human VA-ES-BJ cell growth in a cell viability assay.
pIC50: −log10 of the molar value.
pIC50 overview

- molecule: "C[C@]1(c2nc3c(C(N)=O)cccc3[nH]2)CCCN1 [VELIPARIB]"
  pIC50: "< 5.30"

Name the recorded pIC50 for CC(C)=CC[C@@H](O)C1=CC(=O)c2c(O)ccc(O)c2C1=O [SHIKONIN] . 6.40

Name the recorded pIC50 for COc1cc(C)c(Sc2cnc(NC(=O)c3ccc(CNC(C)C(C)(C)C)cc3)s2)cc1C(=O)N1CCN(C(C)=O)CC1 (centres undefined) . < 4.99

Name the recorded pIC50 for `N#C/C(=C1/Nc2ccccc2S1)c1ccnc(NCCc2cccnc2)n1` . < 5.10

Name the recorded pIC50 for CC(O)(CS(=O)(=O)c1ccc(F)cc1)C(=O)Nc1ccc(C#N)c(C(F)(F)F)c1 (centres undefined) [BICALUTAMIDE] . < 5.99

----------
- Tested on: HCT-15;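 note: cell viability readout, IC50 reflecting suppression of HCT-15 cell growth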
- procedure.summary: cells
- Format: functional, cell-based
- measurement.context: Homo sapiens
- Description: SANGER: Inhibition of human HCT-15 cell growth in a cell viability assay.
quantity.name: IC50

Here is how some molecules turned out for IC50.
- chemical.string: "Cn1cc(/C=C2\\C(=O)Nc3cccnc32)c2ccccc21"
  measurement: "> 2000 nM"
- chemical.string: "O=c1cc(N2CCOCC2)oc2c(-c3cccc4c3sc3ccccc34)cccc12"
  measurement: "> 2000 nM"

Name the recorded IC50 for `CC[C@@]1(O)C(=O)OCc2c1cc1n(c2=O)Cc2cc3ccccc3nc2-1` . > 100 nM

----------
IC50 overview
- Test system: HN
- procedure.summary: cells
- Assay type: functional, cell-based
- measurement.context: Homo sapiens
- Description: SANGER: Inhibition of human HN cell growth in a cell viability assay.
Kindly answer with a numeric value in nM, unit omitted.

- chemical.string: "O=C(CCCCCCC(=O)Nc1ccccc1)NO"
  system.tested: "HN"
  IC50 [nM]: 1890

Name the recorded IC50 for `CC(C)=CC[C@@H](O)C1=CC(=O)c2c(O)ccc(O)c2C1=O` . 1370

----------
- Test system: CP66-MEL;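 note: growth inhibition of CP66-MEL cells determined in a cell viability assay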
- procedure.summary: cells
- Type: functional, cell-based
- measurement.context: Homo sapiens
- Description: SANGER: Inhibition of human CP66-MEL cell growth in a cell viability assay.
pIC50 overview
Note on units: pIC50 is unitless, being -log10 of a concentration expressed in mol/L.

Here is how some compounds turned out for pIC50.
- compound: "CC(C)=CC[C@@H](O)C1=CC(=O)c2c(O)ccc(O)c2C1=O [SHIKONIN]"
  pIC50: 5.62
- compound: "Fc1cc(-c2cc[nH]/c(=N/c3ccc(-n4cnc(N5CCOCC5)n4)cc3)n2)cc(N2CCOCC2)c1"
  pIC50: 6.09
- compound: "Cc1ccc(NC(=O)c2cccc(C(C)(C)C#N)c2)cc1Nc1ccc2ncn(C)c(=O)c2c1"
  pIC50: 6.88
- compound: "CCCS(=O)(=O)Nc1ccc(F)c(C(=O)c2c[nH]c3ncc(Cl)cc23)c1F [PLX-4720]"
  pIC50: 5.38

Name the recorded pIC50 for CO[C@@]12[C@H](COC(N)=O)C3=C(C(=O)C(C)=C(N)C3=O)N1C[C@@H]1N[C@@H]12 [MITOMYCIN] . 6.19

----------
- Test system: LS-123
- procedure.summary: cells
- Assay type: functional, cell-based
- measurement.context: Homo sapiens
- Description: SANGER: Inhibition of human LS-123 cell growth in a cell viability assay.
pIC50: −log10 of the molar value.
pIC50 overview

Name the recorded pIC50 for `Cn1cc(/C=C2\C(=O)Nc3cccnc32)c2ccccc21` . < 5.70

Name the recorded pIC50 for `CC[C@@]1(O)C(=O)OCc2c1cc1n(c2=O)Cc2cc3ccccc3nc2-1` . < 7.00

Name the recorded pIC50 for `CCNc1cc(N[C@H]2CC[C@@H](O)CC2)nc(Nc2ccc3c(ccn3Cc3ccccc3)c2)n1` . < 5.29

Name the recorded pIC50 for `Cc1[nH]c(/C=C2\C(=O)Nc3ccc(S(=O)(=O)Cc4c(Cl)cccc4Cl)cc32)c(C)c1C(=O)N1CCC[C@@H]1CN1CCCC1` . < 5.70

----------
- Tested on: MOLT-16
- procedure.summary: cells
- Format: functional, cell-based
- measurement.context: Homo sapiens
- Description: SANGER: Inhibition of human MOLT-16 cell growth in a cell viability assay.
pIC50: −log10 of the molar value.
pIC50 overview

Name the recorded pIC50 for Cc1[nH]c(/C=C2\C(=O)Nc3ccc(S(=O)(=O)Cc4c(Cl)cccc4Cl)cc32)c(C)c1C(=O)N1CCC[C@@H]1CN1CCCC1 [PHA-665752] . < 5.70

Name the recorded pIC50 for CC[C@@]1(O)C(=O)OCc2c1cc1n(c2=O)Cc2cc3ccccc3nc2-1 [CAMPTOTHECIN] . 9.14

Name the recorded pIC50 for `Cn1cc(/C=C2\C(=O)Nc3cccnc32)c2ccccc21` . < 5.70

Name the recorded pIC50 for CC(O)(CS(=O)(=O)c1ccc(F)cc1)C(=O)Nc1ccc(C#N)c(C(F)(F)F)c1 (stereo not drawn) [BICALUTAMIDE] . < 5.99

Name the recorded pIC50 for C[C@]1(c2nc3c(C(N)=O)cccc3[nH]2)CCCN1 [VELIPARIB] . < 5.30

Name the recorded pIC50 for Cc1nc(Nc2ncc(C(=O)Nc3c(C)cccc3Cl)s2)cc(N2CCN(CCO)CC2)n1 [DASATINIB] . < 5.89

Name the recorded pIC50 for `O=c1[nH]c2ccccc2n1C1CCN(Cc2ccc(-c3nc4cc5[nH]cnc5cc4nc3-c3ccccc3)cc2)CC1` . < 5.59

Name the recorded pIC50 for C/C=C(/C)C(=O)O[C@H]1C(C)=C2[C@H]([C@@H]1OC(=O)CCCCCCC)[C@@](C)(OC(C)=O)C[C@H](OC(=O)CCC)[C@@]1(O)[C@H]2OC(=O)[C@@]1(C)O [THAPSIGARGIN] . 8.34

----------
IC50 overview
- Tested on: OCI-AML2
- procedure.summary: cells
- Type: functional, cell-based
- measurement.context: Homo sapiens
- Description: SANGER: Inhibition of human OCI-AML2 cell growth in a cell viability assay.

Here is how some compounds turned out for IC50.
- compound: "COc1cc(Nc2c(C#N)cnc3cc(OCCCN4CCN(C)CC4)c(OC)cc23)c(Cl)cc1Cl"
  system.tested: "OCI-AML2"
  IC50: "> 2 µM"
- compound: "C[C@]1(c2nc3c(C(N)=O)cccc3[nH]2)CCCN1"
  system.tested: "OCI-AML2"
  IC50: "> 5 µM"

Name the recorded IC50 for COc1cc(C)c(Sc2cnc(NC(=O)c3ccc(CNC(C)C(C)(C)C)cc3)s2)cc1C(=O)N1CCN(C(C)=O)CC1 (configuration not stated) . 7.48 µM

Name the recorded IC50 for `CCCS(=O)(=O)Nc1ccc(F)c(C(=O)c2c[nH]c3ncc(Cl)cc23)c1F` . > 10 µM

Name the recorded IC50 for CCn1c(-c2nonc2N)nc2cnc(Oc3cccc(NC(=O)c4ccc(OCCN5CCOCC5)cc4)c3)cc21 [GSK-269962A] . > 2.5 µM

Name the recorded IC50 for `CC[C@]1(O)C[C@@H]2CN(CCc3c([nH]c4ccccc34)[C@@](C(=O)OC)(c3cc4c(cc3OC)N(C)[C@H]3[C@@](O)(C(=O)OC)[C@H](OC(C)=O)[C@]5(CC)C=CCN6CC[C@]43[C@@H]65)C2)C1` . > 0.1 µM

Name the recorded IC50 for `CO[C@@]12[C@H](COC(N)=O)C3=C(C(=O)C(C)=C(N)C3=O)N1C[C@@H]1N[C@@H]12` . < 0.0625 µM

----------
IC50 overview
- System: DEL
- procedure.summary: cells
- Format: functional, cell-based
- measurement.context: Homo sapiens
- Description: SANGER: Inhibition of human DEL cell growth in a cell viability assay.
Kindly answer with a numeric value in nM, unit omitted.

- chemical.string: "CC(=O)c1c(C)c2cnc(Nc3ccc(N4CCNCC4)cn3)nc2n(C2CCCC2)c1=O"
  IC50, nM: 1700

Turning now to a further record.
Name the recorded IC50 for `CO[C@@]12[C@H](COC(N)=O)C3=C(C(=O)C(C)=C(N)C3=O)N1C[C@@H]1N[C@@H]12` . 48.4

----------
- Test system: NCI-H1573
- procedure.summary: cells
- Assay type: functional, cell-based
- measurement.context: Homo sapiens
- Description: SANGER: Inhibition of human NCI-H1573 cell growth in a cell viability assay.
quantity.name: pIC50
Note on units: pIC50 is unitless, being -log10 of a concentration expressed in mol/L.

- chemical.string: "Cn1c(=O)n(-c2ccc(C(C)(C)C#N)cc2)c2c3cc(-c4cnc5ccccc5c4)ccc3ncc21"
  pIC50: 7.06

Turning now to a further record.
Name the recorded pIC50 for `NC(=O)c1ncn([C@@H]2O[C@H](COP(=O)(O)O)[C@@H](O)[C@H]2O)c1N` . 3.45

The origin of these recorded values is ChEMBL document CHEMBL1201861.
